- Test system: PIKFYVE;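 note: KINOMEscan kinase panel screen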
- experimental setup: concentration: 1 μM, replicates: in singlicate; n = 1
observable: %Inh (%)
Provide only the numeric value, understood in %.

INSERT INTO results (compound, assayed_system, result_unit, reading) VALUES
  ('Cl.c1ccc(-c2ccc3c(Nc4ccc5[nH]ncc5c4)ccnc3c2)nc1', 'PIKFYVE', '%', 7),
  ('Cc1occc1-c1ncc(OC[C@@H](N)Cc2c[nH]c3ccccc23)cc1-c1ccc2[nH]nc(C)c2c1.O=C(O)C(F)(F)F', 'PIKFYVE', '%', 0),
  ('COc1cc2c(cc1OCCN1CCNCC1)ncc1c3ccc(C#N)cc3[nH]c21', 'PIKFYVE', '%', 14);

Switching to the query record.
So, Cc1ccc(C)c(NC(=O)NC2CCN(c3ccnc(Nc4ccc(F)cc4)n3)C2)c1 (stereo not shown) ? Its %Inh was 0

Origin of values: paper PMC5540273
